Assign residual hCCL1 (100 nM) Gi2 response, protocol #3, mAb 0.05 µg/mL to each entry below.
measurementTarget: human CCR8 (human, UniProt P51685 1-355)
measurementNotes: cell-based or functional assay
Answers are plain numbers, in %.

Known residual hCCL1 (100 nM) Gi2 response, protocol #3, mAb 0.05 µg/mL results, listed for orientation:
[
  {
    "binder": "anti-CCR8 mAb 1-4 (antibody, V domains shown, Murine hybridoma mAb) VH: EVQLVESGGGLVQPTGSLRLSCAASGFTFNAYAMNWVRQAPGKGLEWVARIRSKSNDYATYYGDSVKDRFTISRDDSQSMLYLQMNNLKTEDTAMYYCVRGREAYYRYDGGYYAMDYWGQGTSVTVSS VL: DIVMTQAAPSVSVTPGESVSISCTSSKSLLHSNGNTYLYWFLQRPGQSPQLLIYRMSNLASGVPDRFSGSGSGTAFTLRISRVEAEDVGVYYCMQHREYPFTFGSGTKLEIK",
    "dataValue": 75
  },
  {
    "binder": "anti-CCR8 mAb 1-22 (antibody, human IgG1, kappa, V domains shown, Humanized mAb, human IgG1 / kappa) VH: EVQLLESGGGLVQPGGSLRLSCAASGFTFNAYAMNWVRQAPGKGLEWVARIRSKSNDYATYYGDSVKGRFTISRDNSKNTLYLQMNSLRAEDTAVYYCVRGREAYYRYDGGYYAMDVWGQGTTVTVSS VL: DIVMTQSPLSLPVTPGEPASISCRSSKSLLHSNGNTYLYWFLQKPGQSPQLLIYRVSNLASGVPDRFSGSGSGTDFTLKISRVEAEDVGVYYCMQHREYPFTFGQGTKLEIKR",
    "dataValue": 110
  }
]

Continue with the next binder.
# residual hCCL1 (100 nM) Gi2 response, protocol #3, mAb 0.05 µg/mL of anti-CCR8 mAb 1-12 (antibody, V domains shown, Murine hybridoma mAb) VH: EVQLVETGGGLVQPKGSLKLSCAASGFTFNANAMNWVRQAPGKGLEWVARIRSKSNNYATYYADSVKDRFTISRDDSQSMLYLQMNNLKTEDTAMYYCVRGSDNYIFYAMDYWGQGTSVTVSS VL: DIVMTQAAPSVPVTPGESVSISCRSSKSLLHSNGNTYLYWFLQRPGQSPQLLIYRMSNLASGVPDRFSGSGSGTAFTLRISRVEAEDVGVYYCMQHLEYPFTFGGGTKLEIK = 86
